- System: 8505C (Thyroid Gland Carcinoma)
- ASSAY EXPLANATION: combination Emax (second highest fraction inhibited in the dose matrix, 72 h); higher = more inhibition; extreme values may be limits of the assay
Each entry below carries its recorded combination Emax.

{"MOLECULE": "CN(C)CCCOc1ccc(-c2ccc3ncc4c(c3c2)n(C2CCOCC2)c(=O)n4C)cn1 [AZD0156] + C=CCn1c(=O)c2cnc(Nc3ccc(N4CCN(C)CC4)cc3)nc2n1-c1cccc(C(C)(C)O)n1 [AZD1775] (first compound max 1 µM, partner max 1 µM)", "combination Emax": 0.126}
{"MOLECULE": "COc1nnc2ccc(N3CCC(c4ccc(OCCN5CCN(C)C(=O)[C@H]5C)cc4)CC3)nn12 [AZD5153] + CC1(C)CCC(CN2CCN(c3ccc(C(=O)NS(=O)(=O)c4ccc(NCC5CCOCC5)c([N+](=O)[O-])c4)c(Oc4cnc5[nH]ccc5c4)c3)CC2)=C(c2ccc(Cl)cc2)C1 [Venetoclax] (first compound max 1 µM, 7x7, partner max 1 µM)", "combination Emax": 0.419}
{"MOLECULE": "C[C@@H](c1ccc2nccn2c1)n1nnc2ncc(-c3cnn(C)c3)nc21 [Savolitinib] + CN(CC[C@H](CSC1=CC=CC=C1)NC2=C(C=C(C=C2)S(=O)(=O)NC(=O)C3=CC=C(C=C3)N4CCC(CC4)[C@H](C5=CC=CC=C5C6=CC=C(C=C6)Cl)O)S(=O)(=O)C(F)(F)F)CCO [AZD4320] (first compound max 1 µM, 7x7, partner max 1 µM)", "combination Emax": 0.201}
{"MOLECULE": "CN(CCO)CC[C@H](CSc1ccccc1)Nc1ccc(S(=O)(=O)NC(=O)c2ccc(N3CCC([C@@H](O)c4ccccc4-c4ccc(Cl)cc4)CC3)cc2)cc1S(=O)(=O)C(F)(F)F [AZD4320] + C[C@@H]1COCCN1C2=NC(=NC(=C2)C3(CC3)[S@](=N)(=O)C)C4=C5C=CNC5=NC=C4 [AZD6738] (first compound max 1 µM, 7x7, partner max 10 µM)", "combination Emax": 0.59}
{"MOLECULE": "Cc1c2c(nn1C)CSCc1cc(n(C)n1)CSc1cc(c3ccccc3c1)OCCCc1c(C(=O)O)n(C)c3c-2c(Cl)ccc13 [AZD5991] + Cc1cc2ncnn2cc1Nc1ncc2c(n1)n(C1CCOCC1)c(=O)n2C [AZD7648] (first compound max 1 µM, 7x7, partner max 10 µM)", "combination Emax": 0.193}

Just for reference, the supplement of paper PMC11061612 is where these values come from.
